Data provenance: patent US5859032A

I'd be grateful if you could share measured cytotoxicity at 4 h, 100 µM for these entries.
- Protocol summary: MTT: Cell Damaging and Protecting Effect Test
- Assay type: cell-based, Japanese White rabbit
- Stated conditions: rabbit, gastric mucosa cells, 10^-4 M, 37° C., smaller value is better, read-out: MTT: cell damaging rate
Your answer should be a plain number; it is taken to be in %.

Given the entry CC(C)=CCC/C(C)=C/COc1ccc(C(=O)NCCSc2ccc(C(F)(F)F)cn2)cc1 [Example 12] , report its measured cytotoxicity at 4 h, 100 µM. -14

Given the entry CC(C)=CCOc1ccc(OCC=C(C)C)c(C(=O)NCCc2ccncc2)c1 [Example 6] , report its measured cytotoxicity at 4 h, 100 µM. -94

Given the entry CC(C)=CCC/C(C)=C/COc1ccc(C(=O)Nc2cccnc2)cc1 [Example 4, 3-(4-geranyloxybenzoylamino)pyridine] , report its measured cytotoxicity at 4 h, 100 µM. 6

Given the entry CC(C)=CCC/C(C)=C/COc1ccc(C(=O)NCC(=O)Nc2ccccn2)cc1 [Example 13] , report its measured cytotoxicity at 4 h, 100 µM. -36

Given the entry CC(C)=CCC/C(C)=C/COc1ccc(C(=O)NCCc2ccccn2)cc1 [Example 1] , report its measured cytotoxicity at 4 h, 100 µM. 8

* * *

I'd be grateful if you could share measured PD: change in gastric mucosal potential difference (5 levels) for these entries.
- Tested on: gastric mucosa
- Protocol summary: PD: Gastric Mucosal Integrity Test
- Type: in vivo, rat (male CDj:SD)
- Set-up: key: 5: Same as the control with no recognizable damage at all.; 4: Though a slight PD-decreasing tendency suggesting a slight possibility of mucosal damage is found, there is no problem.; 3: Though a weak decrease in PD and a possibility of a weak mucosal damage is recognized, there is no substantial problem.; 2: Medium degree of decrease in PD is found and a mucosal damage is recognized.; 1: Heavy degree of decrease in PD is found and a remarkable mucosal damage is recognized
- Stated conditions: rat, 100 mg/kg into chamber, 60 minutes
Lab note: jot down the number only; don't add units.

Given the entry CC(C)=CCC/C(C)=C/COc1ccc(C(=O)NCCNc2cc(C)cc(C)n2)cc1 [Example 10] , report its measured PD: change in gastric mucosal potential difference (5 levels). 3

Given the entry CC(C)=CCC/C(C)=C/COc1ccc(C(=O)NCCNc2cccnc2)cc1 [Example 7] , report its measured PD: change in gastric mucosal potential difference (5 levels). 3

Given the entry CC(C)=CCC/C(C)=C/COc1ccc(C(=O)NCc2ccncc2)cc1 [Example 3] , report its measured PD: change in gastric mucosal potential difference (5 levels). 3

Given the entry COc1ccc(NCCNC(=O)c2ccc(OC/C=C(\C)CCC=C(C)C)cc2)nc1 [Example 8] , report its measured PD: change in gastric mucosal potential difference (5 levels). 5

Given the entry CC(C)=CCC/C(C)=C/COc1ccc(C(=O)NCCc2ccncc2)cc1 [Example 2] , report its measured PD: change in gastric mucosal potential difference (5 levels). 3

Given the entry COc1ccc(SCCNC(=O)c2ccc(OC/C=C(\C)CCC=C(C)C)cc2)nc1 [Example 11] , report its measured PD: change in gastric mucosal potential difference (5 levels). 4

Given the entry CC(C)=CCOc1ccc(OCC=C(C)C)c(C(=O)NCCc2ccncc2)c1 [Example 6] , report its measured PD: change in gastric mucosal potential difference (5 levels). 5

Given the entry CC(C)=CCC/C(C)=C/COc1ccc(C(=O)Nc2cccnc2)cc1 [Example 4, 3-(4-geranyloxybenzoylamino)pyridine] , report its measured PD: change in gastric mucosal potential difference (5 levels). 5

Given the entry CC(C)=CCC/C(C)=C/COc1ccc(C(=O)NCCSc2ccc(C(F)(F)F)cn2)cc1 [Example 12] , report its measured PD: change in gastric mucosal potential difference (5 levels). 5

Given the entry CC(C)=CCC/C(C)=C/COc1ccc(C(=O)NCC(=O)Nc2ccccn2)cc1 [Example 13] , report its measured PD: change in gastric mucosal potential difference (5 levels). 5

Given the entry CC(C)=CCC/C(C)=C/COc1ccc(C(=O)NCCc2ccccn2)cc1 [Example 1] , report its measured PD: change in gastric mucosal potential difference (5 levels). 5

* * *

- Tested on: mice
- Stated conditions: mouse, in vivo
I'd be grateful if you could share measured AT: toxicity at the single dose (5 levels) for these entries.
Lab note: jot down the number only; don't add units.

Given the entry CC(C)=CCC/C(C)=C/COc1ccc(C(=O)NCCc2ccccn2)cc1 , report its measured AT: toxicity at the single dose (5 levels). 5

Given the entry CC(C)Cc1cc(C(=O)NCCc2ccncc2)ccc1OCc1ccc(F)cc1 , report its measured AT: toxicity at the single dose (5 levels). 4

Given the entry CC(C)=CCC/C(C)=C/COc1ccc(C(=O)NCC(=O)Nc2ccccn2)cc1 , report its measured AT: toxicity at the single dose (5 levels). 5

Given the entry CC(C)=CCC/C(C)=C/COc1ccc(C(=O)NCc2ccncc2)cc1 , report its measured AT: toxicity at the single dose (5 levels). 5

Given the entry CC(C)=CCC/C(C)=C/COc1ccc(C(=O)NCCNc2cc(C)cc(C)n2)cc1 , report its measured AT: toxicity at the single dose (5 levels). 4

Given the entry CC(C)=CCC/C(C)=C/COc1ccc(C(=O)NCCc2ccncc2)cc1 , report its measured AT: toxicity at the single dose (5 levels). 5

Given the entry CC(C)=CCC/C(C)=C/COc1ccc(C(=O)NCCSc2ccc(C(F)(F)F)cn2)cc1 , report its measured AT: toxicity at the single dose (5 levels). 5

Given the entry COc1ccc(SCCNC(=O)c2ccc(OC/C=C(\C)CCC=C(C)C)cc2)nc1 , report its measured AT: toxicity at the single dose (5 levels). 5

Given the entry COc1ccc(NCCNC(=O)c2ccc(OC/C=C(\C)CCC=C(C)C)cc2)nc1 , report its measured AT: toxicity at the single dose (5 levels). 5

* * *

- Protocol summary: MTT: Cell Damaging and Protecting Effect Test
- Type: cell-based, Japanese White rabbit
- Stated conditions: rabbit, gastric mucosa cells, 10^-4 M, 37° C., smaller value is better, read-out: MTT: cell damaging rate
I'd be grateful if you could share measured cytotoxicity at 4 h, 100 µM for these entries.
Your answer should be a plain number; it is taken to be in %.

Given the entry CC(C)=CCC/C(C)=C/COc1ccc(C(=O)NCc2ccncc2)cc1 , report its measured cytotoxicity at 4 h, 100 µM. 16

Given the entry COc1ccc(NCCNC(=O)c2ccc(OC/C=C(\C)CCC=C(C)C)cc2)cn1 , report its measured cytotoxicity at 4 h, 100 µM. 8

Given the entry COc1ccc(NCCNC(=O)c2ccc(OC/C=C(\C)CCC=C(C)C)cc2)nc1 , report its measured cytotoxicity at 4 h, 100 µM. -45

Given the entry CC(C)=CCC/C(C)=C/COc1ccc(C(=O)NCCNc2cccnc2)cc1 , report its measured cytotoxicity at 4 h, 100 µM. 48

Given the entry CC(C)=CCC/C(C)=C/COc1ccc(OC/C=C(\C)CCC=C(C)C)c(C(=O)NCCc2ccncc2)c1 , report its measured cytotoxicity at 4 h, 100 µM. -17

Given the entry COc1ccc(SCCNC(=O)c2ccc(OC/C=C(\C)CCC=C(C)C)cc2)nc1 , report its measured cytotoxicity at 4 h, 100 µM. -34

Given the entry CC(C)=CCC/C(C)=C/COc1ccc(C(=O)NCCNc2cc(C)cc(C)n2)cc1 , report its measured cytotoxicity at 4 h, 100 µM. 65

Given the entry CC(C)=CCC/C(C)=C/COc1ccc(C(=O)NCCc2ccncc2)cc1 , report its measured cytotoxicity at 4 h, 100 µM. 7
